- assay: chemical genetic growth profiling, strain panel (AID 1159580);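 note: tested at 20 µM; growth read once vehicle control cultures reached saturation at 30 °C; 1 = growth at the plate median or of vehicle wells; lower values mean less growth of the strain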
- test-settings: S. cerevisiae deletion strains, growth OD, locus YBR009C, strain hhf1
Among all 5,500 compounds or so, about 2,000 (36%) were called active. About 18% were inconclusive and are not listed. Cut-off read from the data, not from the text of the source: active = normalized growth mostly below about 0.91 (no sharp cut-off); inconclusive = no clear call, values can overlap the other calls; inactive = mostly above about 0.92. This is one part of the list.
Give your call using only these classes: 1 for active, -1 for inactive

compound	class-assignment
NC(=NCCC[C@H](N)C(=O)O)N[N+](=O)[O-]	-1
C=C[C@H]1CN2CC[C@H]1C[C@@H]2[C@@H](OC(=O)OCC)c1ccnc2ccc(OC)cc12	-1
CC/C(=C(/CC)c1ccc(O)cc1)c1ccc(O)cc1	-1

Here is the next item to consider.
Just curious, what result did C[C@@H]1O[C@@H](OC[C@H]2OC(Oc3c(-c4ccc(O)c(O)c4)oc4cc(O)cc(O)c4c3=O)[C@H](O)[C@@H](O)[C@@H]2O)[C@H](O)[C@H](O)[C@H]1O (stereo partly drawn) get here?
-1
